Reported viability at 10 µM values for the following molecules.
# Tested on: Huh7 (hepatocellular carcinoma) cell line
# ASSAY_DETAILS: CellTiter-Glo luminescent cell viability assay, Huh7
# Type: cell-based, human
# CONDITION_CONTEXT: Homo sapiens, Huh-7; Huh7, compound at 10 μM, 72 h
Respond with the bare value in %.

>  <MOLECULE>
CC(C)(C)NC1CCN(c2c(C#N)c(Nc3ccc(F)c(F)c3)nc3ccccc23)CC1 [Compound 3264CN]

>  <viability at 10 µM (%)>
0.5

$$$$

// lookup viability at 10 µM | system=Huh7 (hepatocellular carcinoma) cell line | key= CC(C)(C)OC(=O)NC1CCCN(c2c(C#N)c(NCc3ccc(Cl)cc3)nc3ccccc23)C1 (centres unmarked) [Compound 154CN]
93.5

// lookup viability at 10 µM | system=Huh7 (hepatocellular carcinoma) cell line | key= Cn1cc(Nc2nc3ccccc3c(N3CCC(NC(C)(C)C)CC3)c2C#N)cn1 [Compound 3268CN]
64.8

// lookup viability at 10 µM | system=Huh7 (hepatocellular carcinoma) cell line | key= CC(C)(C)NC1CCN(c2c(C#N)c(NCc3ccco3)nc3ccccc23)CC1 [Compound 3302CN]
40.1

// lookup viability at 10 µM | system=Huh7 (hepatocellular carcinoma) cell line | key= CC(C)(C)NC1CCN(c2c(C#N)c(Nc3ccccc3C(F)(F)F)nc3ccccc23)CC1 [Compound 3254CN]
0.3

// lookup viability at 10 µM | system=Huh7 (hepatocellular carcinoma) cell line | key= CC(C)(C)NC1CCN(c2c(C#N)c(Nc3ccccn3)nc3ccccc23)CC1 [Compound 3278CN]
51

// lookup viability at 10 µM | system=Huh7 (hepatocellular carcinoma) cell line | key= CC(C)(C)NC1CCN(c2c(C#N)c(NCc3ccccc3)nc3ccccc23)CC1 [Compound 3286CN]
0.4

// lookup viability at 10 µM | system=Huh7 (hepatocellular carcinoma) cell line | key= CC(C)(C)NC1CCN(c2c(C#N)c(Nc3cnccn3)nc3ccccc23)CC1 [Compound 3284CN]
79.2

====

# System: HepG2 (hepatocellular carcinoma) cell line
# ASSAY_DETAILS: CellTiter-Glo luminescent cell viability assay, HepG2
# Format: cell-based, human
# CONDITION_CONTEXT: Homo sapiens, HepG2; HepG, compound at 4 μM, 72 h
READOUT_LABEL: viability at 4 µM (%)
Respond with the bare value in %.

>  <MOLECULE>
COc1ccc(OC2CCN(c3c(C#N)c(NCc4ccc(Cl)cc4)nc4ccccc34)CC2)cc1 [Compound 3224CN]

>  <viability at 4 µM, %>
91.6

$$$$

Now, please, on to the next molecule.
What does the record list as viability at 4 µM for Cc1cc(Nc2nc3ccccc3c(N3CCC(NC(C)(C)C)CC3)c2C#N)ccc1Nc1ccnc(-c2cccnc2)n1 [Compound 522CN] ?
0.3

====

Reported pEC50 values for the following compounds.
# System: 786-O (renal adenocarcinoma) cell line
# ASSAY_DETAILS: CellTiter-Glo luminescent cell viability assay, 786-O
# Type: cell-based, human
# CONDITION_CONTEXT: Homo sapiens, 786-0; 786-O cell line; 72 h incubation; CellTiter-Glo; read-out: EC50, growth inhibition of 786-O
pEC50: −log10 of the molar value. Where a name gives a salt, the structure may show the parent alone.

Here are 4 compounds together with their reported answers.
>  <COMPOUND>
Cc1ccc2c(N3CCC(NC(C)(C)C)CC3)cc(NCc3ccc(Cl)cc3)nc2c1F [Compound 564]

>  <OBSERVED_RESULT>
5.30 to 6.30

$$$$
>  <COMPOUND>
CC(C)(C)NC1CCN(c2c(C#N)c(Nc3ccccc3)nc3ccccc23)CC1 [Compound 3246CN]

>  <OBSERVED_RESULT>
5.00 to 5.30

$$$$
>  <COMPOUND>
Clc1ccc(CNc2cc(N3CCC(Oc4ccccc4)CC3)c3ccccc3n2)cc1 [Compound 2940, hydrochloride]

>  <OBSERVED_RESULT>
5.30 to 6.30

$$$$
>  <COMPOUND>
Cn1ncnc1Nc1nc2ccccc2c(N2CCC(NC(C)(C)C)CC2)c1C#N [Compound 3270CN]

>  <OBSERVED_RESULT>
5.00 to 5.30

$$$$

Now, please, on to the next compound.
What does the record list as pEC50 for COc1ccc(CNc2nc3ccccc3c(N3CCC(NC(C)(C)C)CC3)c2C#N)cc1 [Compound 3290CN] ?
5.00 to 5.30

====

# Tested on: Huh7 (hepatocellular carcinoma) cell line
# ASSAY_DETAILS: CellTiter-Glo luminescent cell viability assay, Huh7
# Format: cell-based, human
# CONDITION_CONTEXT: Homo sapiens, Huh-7; Huh7, compound at 10 μM, 72 h
Reported viability at 10 µM values for the following compounds.
Respond with the bare value in %.

Here are 3 compounds together with their reported answers.
>  <COMPOUND>
CC(C)CN(Cc1ccc(Cl)cc1)c1cc(N2CCC(NC(C)(C)C)CC2)c2ccccc2n1 [Compound 220]

>  <UNIT_OF_MEASUREMENT>
%

>  <viability at 10 µM>
0.3

$$$$
>  <COMPOUND>
N#Cc1c(NCc2ccc(Cl)cc2)nc2ccccc2c1N1CCCC(Oc2cccc(F)c2)C1 (centres unmarked) [Compound 3240CN]

>  <UNIT_OF_MEASUREMENT>
%

>  <viability at 10 µM>
113

$$$$
>  <COMPOUND>
Cc1ccc(CNc2nc3ccccc3c(N3CCC(NC(C)(C)C)CC3)c2C#N)cc1 [Compound 3288CN]

>  <UNIT_OF_MEASUREMENT>
%

>  <viability at 10 µM>
0.3

$$$$

What does the record list as viability at 10 µM for COc1ccc(OC2CCN(c3c(C#N)c(NCc4ccc(Cl)cc4)nc4ccccc34)C2)cc1 (centres unmarked) [Compound 3334CN] ?
94.4

What does the record list as viability at 10 µM for N#Cc1c(NCc2ccc(Cl)cc2)nc2ccccc2c1N1CCC(Oc2ccncc2)C1 (centres unmarked) [Compound 3344CN] ?
40.1

What does the record list as viability at 10 µM for CC(C)(C)NC1CCN(c2c(C#N)c(NCc3ccc(F)cc3)nc3ccccc23)CC1 [Compound 240CN] ?
0.4

What does the record list as viability at 10 µM for Cc1nccnc1OC1CCCN(c2c(C#N)c(NCc3ccc(Cl)cc3)nc3ccccc23)C1 (centres unmarked) [Compound 3328CN] ?
104

What does the record list as viability at 10 µM for CN1CCN(C2CCN(c3c(C#N)c(NCc4ccc(Cl)cc4)nc4ccccc34)CC2)CC1 [Compound 3188CN] ?
0.6

====

Reported viability at 10 µM values for the following molecules.
# Test system: A375 (malignant melanoma) cell line
# ASSAY_DETAILS: CellTiter-Glo luminescent cell viability assay, A375
# Format: cell-based, human
# CONDITION_CONTEXT: Homo sapiens, A-375; A375, compound at 10 μM, 72 h
Respond with the bare value in %.

>  <MOLECULE>
N#Cc1c(NCc2ccc(Cl)cc2)nc2ccccc2c1N1CCCC(Oc2ccc(F)cc2)C1 (stereo not shown) [Compound 3238CN]

>  <viability at 10 µM, %>
102

$$$$
>  <MOLECULE>
Cc1cc(OC2CCN(c3c(C#N)c(NCc4ccc(Cl)cc4)nc4ccccc34)CC2)no1 [Compound 2978CN]

>  <viability at 10 µM, %>
86.8

$$$$
>  <MOLECULE>
CNC1CCCN(c2c(C#N)c(NCc3ccc(Cl)cc3)nc3ccccc23)C1 (stereo not shown) [Compound 3158CN]

>  <viability at 10 µM, %>
0.3

$$$$

Now, please, on to the next molecule.
// lookup viability at 10 µM | system=A375 (malignant melanoma) cell line | key= Cc1nccnc1OC1CCCN(c2c(C#N)c(NCc3ccc(Cl)cc3)nc3ccccc23)C1 (stereo not shown) [Compound 3328CN]
87.3

====

# Tested on: Huh7 (hepatocellular carcinoma) cell line
# ASSAY_DETAILS: CellTiter-Glo luminescent cell viability assay, Huh7
# Format: cell-based, human
# CONDITION_CONTEXT: Homo sapiens, Huh-7; Huh7, compound at 4 μM, 72 h
Please note: viability at 4 µM exactly at 80% is f. Only values below 80% get t.

Examples from the recorded data:
>  <COMPOUND>
N#Cc1c(NCc2ccc(Cl)cc2)nc2ccccc2c1N1CCC(NC2CCOCC2)C1 (stereo not shown) [Compound 136CN]

>  <LABEL_VALUE>
f

$$$$
>  <COMPOUND>
CC(C)(C)NC1CCN(c2c(C#N)c(Nc3cnccn3)nc3ccccc23)CC1 [Compound 3284CN]

>  <LABEL_VALUE>
f

$$$$
>  <COMPOUND>
COc1ccc(OC2CCN(c3c(C#N)c(NCc4ccc(Cl)cc4)nc4ccccc34)CC2)cc1 [Compound 3224CN]

>  <LABEL_VALUE>
f

$$$$
>  <COMPOUND>
CC(C)(C)NC1CCN(c2c(C#N)c(NCc3ccncc3)nc3ccccc23)CC1 [Compound 3306CN]

>  <LABEL_VALUE>
f

$$$$
>  <COMPOUND>
Cc1cc(CNc2nc3ccccc3c(N3CCC(NC(C)(C)C)CC3)c2C#N)ccc1Nc1nccc(-c2cccnc2)n1 [Compound 498CN]

>  <LABEL_VALUE>
t

$$$$
>  <COMPOUND>
CC(C)(C)NC1CCN(c2c(C#N)c(Nc3ccc(Cl)cc3)nc3ccccc23)CC1 [Compound 3258CN]

>  <LABEL_VALUE>
t

$$$$

# check: viability at 4 µM < 80% for CC(C)(C)NC1CCN(c2c(C#N)c(NCc3ccc(Cl)cc3)nc3ccccc23)CC1 [Compound 352CN]
t

# check: viability at 4 µM < 80% for COc1ccc(OC2CCCN(c3c(C#N)c(NCc4ccc(Cl)cc4)nc4ccccc34)C2)cc1 (stereo not shown) [Compound 3232CN]
f

# check: viability at 4 µM < 80% for Cc1c(Nc2cccc(Nc3nccc(C(F)(F)F)n3)c2)nc2ccccc2c1N1CCC(NC(C)(C)C)CC1 [Compound 540Me]
t

# check: viability at 4 µM < 80% for CC(C)(C)NC1CCN(c2c(C#N)c(Nc3ccc(F)c(F)c3)nc3ccccc23)CC1 [Compound 3264CN]
t
